# Tested on: Vero E6
# Assay Notes: cell viability relative to DMSO; higher = less toxic
# Condition Info: 72 h; 1 nM
Quantity: cell viability (%)
Express your answer in %, writing the number without its unit.

| Molecule | cell viability / % |
| --- | --- |
| FC(F)(F)c1cc(CO[C@H]2CCCN[C@H]2c2ccccc2)cc(C(F)(F)F)c1 | 96.7 |
| COc1ccc(Cl)c(Nc2nc3ccccc3nc2NS(=O)(=O)c2cccc(NC(=O)C(C)(C)N)c2)c1 | 97 |
| COc1cc(C[C@@H](CO[C@@H]2O[C@H](CO)[C@@H](O)[C@H](O)[C@H]2O)[C@H](CO[C@@H]2O[C@H](CO)[C@@H](O)[C@H](O)[C@H]2O)Cc2ccc(O)c(OC)c2)ccc1O [secoisolariciresinol-diglucoside] | 95.6 |

In: Sample Cn1cnc2c(NCc3ccccc3)nc(NCCO)nc21 — what was its cell viability?
Out: 93

In: Param item = CC(C)[C@](O)(c1ccc2cc(OC(F)F)c(OC(F)F)cc2c1)c1c[nH]nn1 ; retrieve measured cell viability.
Out: 98.8

In: Please report the recorded cell viability for CCC[N+]12[C@H](O)[C@@H](CC)[C@@H]3C[C@H]1[C@@H]1N(C)c4ccccc4[C@]14C[C@H]2[C@@H]3[C@H]4O .
Out: 100

In: Tell me the measured cell viability of C[N+](C)(C)[C@@H](Cc1c[nH]c(=S)[nH]1)C(=O)O , please.
Out: 94.3

In: Which value of cell viability has been reported for Nc1ncnc(Nc2ccc(Cl)cc2)n1 in the records?
Out: 99.6

In: Returns the measured cell viability for the input molecule. Input: c1ccc(CCCCN2CCC(c3ccccc3)CC2)cc1
Out: 100

In: # input molecule: O=C(CNC(=O)c1cccc(C(F)(F)F)c1)N[C@@H]1CCN(Cc2ccc(Cl)cc2)C1 ; wanted: its cell viability
Out: 109

In: Which cell viability value belongs to CCC(C(=O)O)c1ccc(CC(C)C)cc1 (configuration not stated) ?
Out: 93.3

In: So what's the measured cell viability for this one? CN1C(CSCC(F)(F)F)Nc2cc(Cl)c(S(N)(=O)=O)cc2S1(=O)=O (configuration not stated) [polythiazide]
Out: 91.7

In: Request the reported cell viability associated with CCCNCCc1ccc(NS(=O)(=O)c2ccc(OC(F)(F)F)cc2)cc1
Out: 116

In: Consider the molecule CC(C)[C@@H](C)/C=C/[C@@H](C)[C@H]1CC[C@H]2/C(=C/C=C3\C[C@@H](O)CC[C@@H]3C)CCC[C@]12C [dihydrotachysterol] and give its measured cell viability.
Out: 101

====

# System: Caco-2
# Assay Notes: cell viability relative to DMSO; higher = less toxic
# Condition Info: 72 h; 10 nM
Quick reference for cell viability among some compounds
Unit % implied. Number only.

The cases that follow already have their cell viability on record.
| Compound | Readout Number |
| --- | --- |
| O=C(NNC(=O)c1ccc(CNS(=O)(=O)c2ccc(F)c(Cl)c2)cc1)c1ccccc1 | 108 |
| NC(N)=Nc1nc(CSCCN/C=N/S(=O)(=O)c2ccc(Br)cc2)cs1 | 102 |
| CCCn1c(=O)[nH]c(=O)c2nc[nH]c21 | 100 |
| CCc1cn([C@H]2C[C@H](O)[C@@H](CO)O2)c(=O)[nH]c1=O | 93.6 |

In: Recorded cell viability for C[C@H](NC(=O)Cc1cc(F)cc(F)c1)C(=O)N[C@H](C(=O)OC(C)(C)C)c1ccccc1 , please?
Out: 109

In: Please report the recorded cell viability for Clc1ccc2c(NCCNc3ccnc4cc(Cl)ccc34)ccnc2c1 .
Out: 102

In: Report cell viability for Fc1ccc(-c2c3cccc(C(F)(F)F)c3nn2Cc2ccc(F)cc2Cl)cc1 please.
Out: 92
